Assay: Plasma pharmacokinetics at steady state of sorafenib
Format: in vivo, patients with advanced cancer
Settings: plasma; Day 1 of cycle 2; sorafenib 400 mg bid
Record form. Attribute: C max,norm, geometric mean (% CV). Fill in for each entry.

Data request: What value of C max,norm, geometric mean (% CV) has been recorded for this entry: `NC(=O)c1cc(Oc2ccc(NC(=O)Nc3ccc(Cl)c(C(F)(F)F)c3)cc2)cc[n+]1[O-]`
Data returned: 0.1 (99.6) kg/L

Data request: What value of C max,norm, geometric mean (% CV) has been recorded for this entry: `CNC(=O)c1cc(Oc2ccc(NC(=O)Nc3ccc(Cl)c(C(F)(F)F)c3)cc2)cc[n+]1[O-]`
Data returned: 0.2 (70.2) kg/L

Data request: What value of C max,norm, geometric mean (% CV) has been recorded for this entry: `CNC(=O)c1cc(Oc2ccc(NC(=O)Nc3ccc(Cl)c(C(F)(F)F)c3)cc2)ccn1`
Data returned: 1.0 (64.9) kg/L

Data request: What value of C max,norm, geometric mean (% CV) has been recorded for this entry: `NC(=O)c1cc(Oc2ccc(NC(=O)Nc3ccc(Cl)c(C(F)(F)F)c3)cc2)ccn1`
Data returned: 0.1 (75.2) kg/L
